Where these numbers come from: paper PMC4072508

# SYSTEM UNDER TEST: T1, Bfl-1, Q16548
# T1 chain: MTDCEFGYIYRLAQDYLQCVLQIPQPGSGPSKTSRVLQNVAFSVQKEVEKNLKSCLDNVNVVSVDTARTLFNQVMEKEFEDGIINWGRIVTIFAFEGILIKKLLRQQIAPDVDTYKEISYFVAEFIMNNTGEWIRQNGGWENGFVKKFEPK
# ASSAY: peptide SPOT array, c-Myc-tagged receptor at 1 uM or 100 nM, anti-c-Myc-Cy3
hey, just use Yes if measured SPOT signal as a fraction of Bim BH3's signal on the same receptor and array is less than 0.06, otherwise No

> print(dat)
                                    binder  label.value
 1      KIETTPESRYLAQILDSVSLTCSTTG [VCAM1]          Yes
 2    LSIIYTLVEIFQNIGDTNLADFTAGL [SLC26A4]          Yes
 3     QASREAGAAALRNVAQRLFENYQTQS [CCDC68]           No
 4       FYRRRDISNTLIMLADKHAKEIEEES [MTA3]           No
 5       KKLKNLEGNELQRHADEFLLDLGHHE [FUT8]          Yes
 6     RAGELDRARELMRIGKRFGAVLEALE [CC2D1B]           No
 7       WTLFVYTKGNFRMILDDLVNSYHLLL [RBL1]           No
 8      RMIVDCVSSHLKKTLDGAKTFIIFLC [BBS10]           No
 9     LLDFFMVSILDSKLGDLLHKLQFVLT [PCNXL2]          Yes
10      HVDGLHSSEELRNLGWDFSQEKPSTT [SETD2]          Yes
11      PKKKMTLSEIYQWICDNFPYYREAGS [FOXJ3]           No
12  AYRGRGIAKHLAKAALDFVVEEDLKA [C17orf103]           No
